IC50 reference
target: human TRPV4 (Homo sapiens (Human), UniProt Q9HBA0); experiment: Radiometric calcium selectivity assay, CHO cells expressing human TRPV4 (4α-phorbol 12,13-didecanoate); details: read-out: IC50 values hTRPV4
Sequence (Q9HBA0 whole entry): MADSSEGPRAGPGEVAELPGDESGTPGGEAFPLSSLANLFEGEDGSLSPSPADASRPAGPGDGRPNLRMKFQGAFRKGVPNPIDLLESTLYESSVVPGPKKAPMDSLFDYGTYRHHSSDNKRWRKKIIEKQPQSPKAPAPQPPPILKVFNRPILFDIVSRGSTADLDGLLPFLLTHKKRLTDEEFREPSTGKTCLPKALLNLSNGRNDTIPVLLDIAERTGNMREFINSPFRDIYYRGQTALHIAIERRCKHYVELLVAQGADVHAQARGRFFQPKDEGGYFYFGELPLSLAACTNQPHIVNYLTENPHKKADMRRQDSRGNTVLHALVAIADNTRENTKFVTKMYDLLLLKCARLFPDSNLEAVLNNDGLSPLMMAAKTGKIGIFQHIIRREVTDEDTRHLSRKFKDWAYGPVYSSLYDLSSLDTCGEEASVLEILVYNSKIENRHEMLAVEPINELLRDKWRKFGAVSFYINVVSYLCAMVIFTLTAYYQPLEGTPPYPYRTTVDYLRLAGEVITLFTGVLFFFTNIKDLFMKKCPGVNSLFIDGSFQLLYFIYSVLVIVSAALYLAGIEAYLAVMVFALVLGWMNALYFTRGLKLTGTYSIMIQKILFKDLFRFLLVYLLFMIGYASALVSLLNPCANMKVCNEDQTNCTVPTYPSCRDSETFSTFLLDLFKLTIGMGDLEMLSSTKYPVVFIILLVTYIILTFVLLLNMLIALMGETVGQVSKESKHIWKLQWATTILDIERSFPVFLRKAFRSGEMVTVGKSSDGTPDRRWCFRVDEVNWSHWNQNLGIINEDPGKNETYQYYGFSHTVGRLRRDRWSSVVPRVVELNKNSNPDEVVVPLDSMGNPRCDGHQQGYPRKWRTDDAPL
measured.endpoint: IC50

| molecule | measured.endpoint | recorded.result |
| --- | --- | --- |
| CCc1ccc(-c2csc(NC(=O)Cc3cccc4c3c(=O)n(C)c(=O)n4C)n2)cc1 | IC50 | > 1000 nM |
| Cn1c(=O)c2c(CC(=O)Nc3nc(-c4ccc(OC(F)(F)F)c(Cl)c4)cs3)nsc2n(C)c1=O | IC50 | 279 nM |
| Cn1c(=O)c2c(CC(=O)Nc3nc(-c4ccc(C(F)(F)F)c(F)c4F)cs3)c(Cl)oc2n(C)c1=O | IC50 | 1810 nM |
| Cn1c(=O)c2c(cnn2CC(=O)Nc2nc(-c3ccc(OCC(C)(C)C)c(F)c3)cs2)n(C)c1=O | IC50 | > 1000 nM |
| Cn1c(=O)c2c(CC(=O)Nc3nc(-c4cc(F)cc(C(F)(F)F)c4)cs3)nsc2n(C)c1=O | IC50 | 236 nM |
| Cn1c(=O)c2c(CC(=O)Nc3nc(-c4ccc(F)c(C(F)(F)F)c4)cs3)coc2n(C)c1=O | IC50 | > 1000 nM |
| Cn1c(=O)c2c(CC(=O)Nc3nc(-c4cccc(C(F)(F)F)c4)cs3)cccc2n(C)c1=O | IC50 | 1870 nM |
| Cc1sc2c(c1CC(=O)Nc1nc(-c3ccc(Cl)c(Cl)c3)cs1)c(=O)n(C)c(=O)n2C | IC50 | > 1000 nM |
| Cc1oc2c(c1CC(=O)Nc1nc(-c3ccc(C(F)(F)F)cc3F)cs1)c(=O)n(C)c(=O)n2C | IC50 | > 1000 nM |
| Cn1c(=O)c2c(CC(=O)Nc3nc(-c4cc(F)c(OCC(F)(F)F)c(F)c4)cs3)cccc2n(C)c1=O | IC50 | > 1000 nM |
| Cn1c(=O)c2c(CC(=O)Nc3nc(-c4cccc(Cl)c4)cs3)cccc2n(C)c1=O | IC50 | > 1000 nM |
| Cn1c(=O)c2c(CC(=O)Nc3nc(-c4ccc(F)c(OC(F)(F)F)c4)cs3)c(Cl)oc2n(C)c1=O | IC50 | 4020 nM |
| CCc1sc2c(c1CC(=O)Nc1nc(-c3ccc(C(F)(F)F)c(F)c3)cs1)c(=O)n(C)c(=O)n2C | IC50 | 8890 nM |
| Cc1oc2c(c1CC(=O)Nc1nc(-c3ccc(OCC(F)(F)F)c(Cl)c3)cs1)c(=O)n(C)c(=O)n2C | IC50 | > 10000 nM |
| Cn1c(=O)c2c(CC(=O)Nc3nc(-c4ccc(Br)cc4)cs3)cccc2n(C)c1=O | IC50 | 969 nM |
| Cn1c(=O)c2c(cnn2CC(=O)Nc2nc(-c3cc(F)c(OCC4CCC4)c(F)c3)cs2)n(C)c1=O | IC50 | > 1000 nM |
| Cc1oc2c(c1CC(=O)Nc1nc(-c3cc(Cl)c(OCC(C)C)c(Cl)c3)cs1)c(=O)n(C)c(=O)n2C | IC50 | > 10000 nM |
| CC(C)CCOc1ccc(-c2csc(NC(=O)Cc3cccc4c3c(=O)n(C)c(=O)n4C)n2)cc1 | IC50 | > 1000 nM |
| CCc1sc2c(c1CC(=O)Nc1nc(-c3cc(F)c(OCC(F)(F)F)c(F)c3)cs1)c(=O)n(C)c(=O)n2C | IC50 | > 10000 nM |
| Cn1c(=O)c2c(CC(=O)Nc3nc(-c4ccc(C(F)(F)F)cc4F)cs3)nsc2n(C)c1=O | IC50 | 153 nM |
| Cn1c(=O)c2c(CC(=O)Nc3nc(-c4ccc(OC(F)(F)F)c(F)c4)cs3)nsc2n(C)c1=O | IC50 | 172 nM |
| Cn1nc2c(c1CC(=O)Nc1nc(-c3ccc(C(F)(F)F)cc3)cs1)c(=O)n(C)c(=O)n2C | IC50 | > 1000 nM |
| Cn1c(=O)c2c(CC(=O)Nc3nc(-c4ccc(C(F)(F)F)c(F)c4)cs3)ccnc2n(C)c1=O | IC50 | 620 nM |
| Cn1c(=O)c2c(CC(=O)Nc3nc(-c4ccc(F)c(C(F)(F)F)c4F)cs3)cccc2n(C)c1=O | IC50 | > 10000 nM |
| Cn1c(=O)c2c(CC(=O)Nc3nc(-c4cc(F)c(OCC(F)(F)F)c(F)c4)cs3)ccnc2n(C)c1=O | IC50 | > 1000 nM |
| Cc1ccc(-c2csc(NC(=O)Cc3cccc4c3c(=O)n(C)c(=O)n4C)n2)cc1 | IC50 | > 1000 nM |
| Cc1oc2c(c1CC(=O)Nc1nc(-c3ccc(F)c(C(F)(F)F)c3)cs1)c(=O)n(C)c(=O)n2C | IC50 | > 1000 nM |
| Cn1c(=O)c2c(CC(=O)Nc3nc(-c4ccc(C(F)(F)F)c(F)c4)cs3)nsc2n(C)c1=O | IC50 | 162 nM |
| Cn1c(=O)c2c(CC(=O)Nc3nc(-c4cc(F)cc(C(F)(F)F)c4)cs3)c(Cl)oc2n(C)c1=O | IC50 | > 10000 nM |
| Cn1c(=O)c2c(CC(=O)Nc3nc(-c4ccc(I)cc4)cs3)cccc2n(C)c1=O | IC50 | > 1000 nM |
